- Tested on: E. cloacae 963
- assayName: in vitro antibacterial activity, agar plate dilution method (MIC)
- Format: cell-based
- assayContext: Enterobacter cloacae, 963, 16 h, read-out: Minimum Inhibitory Concentration (MIC), E. cloacae 963; 10^6 CFU/ml
I'd be grateful if you could share measured MIC for these entries.

C#CCO/N=C(\C(=O)N[C@@H]1C(=O)N2C(C(=O)O)=C(CSc3nnc(-c4ccc(O)c(O)c4)s3)CS[C@H]12)c1csc(N)n1: 0.0125 µg/mL
CC(C)(O/N=C(\C(=O)N[C@@H]1C(=O)N2C(C(=O)O)=C(CSc3nc(-c4ccc(O)cc4)c(CC(=O)O)s3)CS[C@H]12)c1csc(N)n1)C(=O)O [compound 19, reference compound]: 3.12 µg/mL
CO/N=C(\C(=O)N[C@@H]1C(=O)N2C(C(=O)O)=C(CSc3nc(-c4ccc(O)cc4)cs3)CS[C@H]12)c1csc(N)n1 [compound 10, reference compound]: 1.56 µg/mL

# return MIC for each item in the list
1. Nc1nc(/C(=N/Oc2ccccc2)C(=O)N[C@@H]2C(=O)N3C(C(=O)O)=C(CSc4nnc(-c5ccc(O)c(O)c5)o4)CS[C@H]23)cs1
2. Nc1nc(/C(=N/OCC(=O)O)C(=O)N[C@@H]2C(=O)N3C(C(=O)O)=C(CSc4nnc(-c5ccc(O)c(O)c5)o4)CS[C@H]23)cs1

["0.025 µg/mL", "0.025 µg/mL"]

Name the recorded MIC for CO/N=C(\C(=O)N[C@@H]1C(=O)N2C(C(=O)O)=C(CSc3ncc(-c4ccc(O)cc4)o3)CS[C@H]12)c1csc(N)n1 [compound 23, reference compound] . 3.12 µg/mL

---

- Test system: P. vulgaris No. 33
- assayName: in vitro antibacterial activity, agar plate dilution method (MIC)
- Format: cell-based
- assayContext: Proteus vulgaris, NO.33, 16 h, read-out: Minimum Inhibitory Concentration (MIC), *P. vulgaris No. 33, lactamase-producing strain; 10^6 CFU/ml
I'd be grateful if you could share measured MIC for these entries.

Below, each entry is followed by its recorded MIC result.
CC(C)(O/N=C(\C(=O)N[C@@H]1C(=O)N2C(C(=O)O)=C(CSc3nnc(-c4ccc(O)c(O)c4)o3)CS[C@H]12)c1csc(N)n1)C(=O)O [Ex. 11]: 0.025 µg/mL
C=CCO/N=C(\C(=O)N[C@@H]1C(=O)N2C(C(=O)O)=C(CSc3nnc(-c4ccc(O)c(O)c4)o3)CS[C@H]12)c1csc(N)n1 [Ex. 8]: 0.0125 µg/mL

Read the next record carefully.
Name the recorded MIC for Nc1nc(/C(=N/Oc2ccccc2)C(=O)N[C@@H]2C(=O)N3C(C(=O)O)=C(CSc4nnc(-c5ccc(O)c(O)c5)o4)CS[C@H]23)cs1 [Ex. 22] . 0.025 µg/mL

---

I'd be grateful if you could share measured MIC for these entries.
- Test system: K. pneumoniae No. 42
- assayName: in vitro antibacterial activity, agar plate dilution method (MIC)
- Format: cell-based
- assayContext: Klebsiella pneumoniae, NO.42, 16 h, read-out: Minimum Inhibitory Concentration (MIC), *K. pneumoniae No. 42, lactamase-producing strain; 10^6 CFU/ml
Give bare numbers, in µg/mL.

Below, each entry is followed by its recorded MIC result.
CC(C)(O/N=C(\C(=O)N[C@@H]1C(=O)N2C(C(=O)O)=C(CSc3nc(-c4ccc(O)cc4)cs3)CS[C@H]12)c1csc(N)n1)C(=O)O [compound 12, reference compound]: 3.12
CCON=C(C(=O)N[C@@H]1C(=O)N2C(C(=O)[O-])=C(CSc3nc(-c4ccc(OC(C)=O)c(OC(C)=O)c4)cs3)CS[C@H]12)c1csc(N)n1.[Na+] [Ex. 49]: 0.05
C=CCO/N=C(\C(=O)N[C@@H]1C(=O)N2C(C(=O)O)=C(CSc3nnc(-c4ccc(O)c(O)c4)o3)CS[C@H]12)c1csc(N)n1 [Ex. 8]: 0.05

# return MIC for each item in the list
1. CO/N=C(\C(=O)N[C@@H]1C(=O)N2C(C(=O)O)=C(CSc3nc(-c4ccc(OC(C)=O)cc4)c(CC(=O)O)s3)CS[C@H]12)c1csc(N)n1 [compound 18, reference compound]
2. Nc1nc(/C(=N/OC2(C(=O)O)CC2)C(=O)N[C@@H]2C(=O)N3C(C(=O)O)=C(CSc4nnc(-c5ccc(O)c(O)c5)o4)CS[C@H]23)cs1 [Ex. 12]
3. CO/N=C(\C(=O)N[C@@H]1C(=O)N2C(C(=O)O)=C(CSc3nnc(-c4ccc(O)c(O)c4)o3)CS[C@H]12)c1csc(N)n1 [Ex. 1]

[0.78, 0.025, 0.025]
